study_target: CDK6/cyclin D1 (Homo sapiens) (UniProt P24385+Q00534)
assay_name: Inhibition of human CDK6/cycD1 expressed in Sf9 cells at 10 uM; values are per cent of control
In this section, each of the compounds is paired with its reported residual activity.
The reply should be a number in %, with the unit left off.

Worked cases, answers included:
Consider the compound COc1cc(C2=C(c3cn(C)c4ccccc34)C(=O)NC2=O)cc(OC)c1OC and give its recorded residual activity. 26

Consider the compound COc1ccc(C2=C(c3ccc(OC)cc3)C(=O)NC2=O)cc1 and give its recorded residual activity. 96

Consider the compound COc1ccc(C2=C(c3cc(OC)c(OC)c(OC)c3)C(=O)NC2=O)cc1O and give its recorded residual activity. 70

Consider the compound COc1cc(C2=C(c3c[nH]c4ccccc34)C(=O)NC2=O)cc(OC)c1OC [MALEIMIDE] and give its recorded residual activity. 34

Consider the compound O=C1NC(=O)C(c2ccccc2)=C1c1ccccc1 and give its recorded residual activity. 53

Moving on to the next compound.
Consider the compound COc1ccc(C2=C(c3ccccc3)C(=O)NC2=O)cc1OC and give its recorded residual activity. 89

====

study_target: UniProtKB P63319
assay_name: Inhibition of rat PKC gamma expressed in Sf9 cells at 10 uM; values are per cent of control
In this section, each of the compounds is paired with its reported residual activity.
The reply should be a number in %, with the unit left off.

Worked cases, answers included:
Consider the compound COc1ccc(C2=C(c3cc(OC)c(OC)c(OC)c3)C(=O)NC2=O)cc1O and give its recorded residual activity. 76

Consider the compound COc1ccc2[nH]c3c4c(OC)c(OC)c(OC)cc4c4c(c3c2c1)C(=O)NC4=O and give its recorded residual activity. 114

Consider the compound COc1cc(C2=C(c3cc[nH]c3)C(=O)NC2=O)cc(OC)c1OC and give its recorded residual activity. 99

Consider the compound COc1cc(C2=C(c3c[nH]c4ccccc34)C(=O)NC2=O)cc(OC)c1OC [MALEIMIDE] and give its recorded residual activity. 55

Moving on to the next compound.
Consider the compound COc1ccc(C2=C(c3ccccc3)C(=O)NC2=O)cc1OC and give its recorded residual activity. 93

====

study_target: Cyclin-dependent kinase 2/cyclin E (Homo sapiens) (UniProt P24864+P24941+O96020)
assay_name: Inhibition of human CDK2/cycE expressed in Sf9 cells at 100 uM; values are per cent of control
readout: residual activity (%)
The reply should be a number in %, with the unit left off.

Worked cases, answers included:
Consider the compound COc1cc(C2=C(c3c(-c4ccccc4)[nH]c4ccccc34)C(=O)NC2=O)cc(OC)c1OC and give its recorded residual activity. 95

Consider the compound O=C1NC(=O)C(c2c[nH]c3ccccc23)=C1c1ccc(Cl)cc1 and give its recorded residual activity. 116

Consider the compound COc1cc(C2=C(c3c[nH]c4ccccc34)C(=O)NC2=O)cc(OC)c1OC [MALEIMIDE] and give its recorded residual activity. 48

Consider the compound COc1ccc(C2=C(c3ccc(OC)cc3)C(=O)NC2=O)cc1 and give its recorded residual activity. 103

Consider the compound COc1cc(C2=C(c3cc4ccccc4[nH]3)C(=O)NC2=O)cc(OC)c1OC and give its recorded residual activity. 79

Others:
Consider the compound COc1ccc(C2=C(c3cc(OC)c(OC)c(OC)c3)C(=O)NC2=O)cc1 and give its recorded residual activity. 89

Consider the compound COc1cc2c3c(c4c5ccccc5n(C)c4c2c(OC)c1OC)C(=O)NC3=O and give its recorded residual activity. 50

Data provenance: ChEMBL document CHEMBL1149451
